Each item that follows carries a reported apparent KD of MS2 coat protein.
system: MS2 coat protein; test: apparent KD of MS2 coat protein; designed switch direction (-1 OFF switch, 1 ON switch): 1; higher = weaker reporter binding; conditions: input ligand: FMN 200 uM
# output: bare number, implied unit nM

Param item = UUGCGGGCUUGAGGAUAUUGAGUACAUAUGUUUAACAUGAGGAUCACCCAUGUGGGUUGCGGUGUCGAGAAGGUGGCUUCCUGC [salish99_SSNG2_r04_814] (Eterna round: R96, puzzle: Same State NG 2) ; retrieve measured apparent KD of MS2 coat protein. 99.2

Param item = GUAACAUGACGAGGAUAUGGUACAUGAGGAUCACCCAUGUAUGUACCACGACGCGUACGUCGAAUCCAGAAGGCGUCGUGAAUG [Mat - Same State NG 2 - JL mod - D21] (Eterna round: R96, puzzle: Same State NG 2) ; retrieve measured apparent KD of MS2 coat protein. 26.5

Next sequence, apparent KD of MS2 coat protein to be filled in.
Param item = UGGCUCAGAGCAGGAUAUAUGUCUCGAGCUUCGGCUCGAGACAUGAGGAUCACCCAUGUAAUAACAUAGAAGGGCUCUGAGCCA [SSNG2/1-B2] (Eterna round: R96, puzzle: Same State NG 2) ; retrieve measured apparent KD of MS2 coat protein. 16.3
